Where these numbers come from: patent US20260274833A1

study target: CDK2 (Homo sapiens, UniProt P24941)
Construct: endogenous in cells; host or cells: OVCAR3 cells
protocol: Phospho-RB measurement in OVCAR3 cells (HTRF phospho-RB cellular kit)
Type: cell-based
experimental context: inhibition of RB phosphorylation at S807/811 (HTRF, TR-FRET ratio 665/620), 24 h compound treatment, 0.3 to 10,000 nM
Each entry below carries its reported IC50.
metric: IC50 (nM)

compound	numeric result
CC(C)(C)c1nc(-c2cccc(NS(=O)(=O)N3Cc4cccc(OC(F)F)c4C3)c2F)c(-c2ccnc(NC3CC4(C3)CS(=O)(=O)C4)n2)s1 [Example 205]	40.4
CN1CC(N(C)S(=O)(=O)N2CCC(Nc3nccc(-c4sc(C(C)(C)C)nc4-c4cccc(NS(=O)(=O)N5Cc6ccccc6C5)c4F)n3)CC2)C1 [Example 179]	241
O=S1(=O)CC2(CC(Nc3nccc(-c4sc(C56CC(C5)C6)nc4-c4cccc(NS(=O)(=O)N5C6CCC5CC(F)(F)C6)c4F)n3)C2)C1 [Example 266]	8470

###

study target: CDK2 (Homo sapiens)
Construct: endogenous in cells; host or cells: OVCAR3 cells
protocol: Phospho-RB measurement in OVCAR3 cells (HTRF phospho-RB cellular kit)
Format: cell-based
experimental context: inhibition of RB phosphorylation at S807/811 (HTRF, TR-FRET ratio 665/620), 24 h compound treatment, 0.3 to 10,000 nM
For each record, check the reported IC50: if it is below 400 nM write fulfilled, else write not fulfilled.

smiles structure	label class
CN(C)Cc1ccc2c(c1)N(S(=O)(=O)Nc1cccc(-c3nc(C(C)(C)C)sc3-c3ccnc(NC4CCN(S(C)(=O)=O)CC4)n3)c1F)CC2	fulfilled
CC1(c2nc(-c3cccc(NS(=O)(=O)N4Cc5cccc(C(F)(F)F)c5C4)c3F)c(-c3ccnc(N[C@H]4[C@@H]5CS(=O)(=O)C[C@@H]54)n3)s2)CCOCC1	fulfilled
C[C@H]1Cc2ccccc2N1S(=O)(=O)Nc1cccc(-c2nc(C(C)(C)C)sc2-c2ccnc(NC3CCN(S(=O)(=O)N4CCNCC4)CC3)n2)c1F	not fulfilled
COc1cccc2c1CN(S(=O)(=O)Nc1cccc(-c3nc(C(C)(C)C)sc3-c3ccnc(NC4CCN(S(=O)(=O)N5CCNCC5)CC4)n3)c1F)C2	fulfilled
CC(C)(C)c1nc(-c2cccc(NS(=O)(=O)N3CCc4ccc(C#N)cc43)c2F)c(-c2ccnc(NC3CCN(S(C)(=O)=O)CC3)n2)s1	fulfilled
CC1(c2nc(-c3cccc(NS(=O)(=O)N4CCc5ccc(C#N)cc54)c3F)c(-c3ccnc(Nc4ccc(N5CCNCC5)cc4)n3)s2)CCOCC1	not fulfilled
N#Cc1ccc2c(c1)N(S(=O)(=O)Nc1cccc(-c3nc(C45CC(C4)C5)sc3-c3ccnc(N[C@H]4C[C@@H]5CS(=O)(=O)C[C@@H]5C4)n3)c1F)CC2	fulfilled
CC(C)(C)c1nc(-c2cccc(NS(=O)(=O)N3Cc4cccc(OCCO)c4C3)c2F)c(-c2ccnc(NC3CCN(S(C)(=O)=O)CC3)n2)s1	fulfilled
CC(C)(C)c1nc(-c2cccc(NS(=O)(=O)N3CCc4cnccc43)c2F)c(-c2ccnc(NC3CCN(S(C)(=O)=O)CC3)n2)s1	not fulfilled
O=S1(=O)CC2(CC(Nc3nccc(-c4sc(C56CC(C5)C6)nc4-c4cccc(NS(=O)(=O)N5C6CCC5c5ccccc56)c4F)n3)C2)C1	not fulfilled
